assay.procedure: Selectivity index, ratio of CC50 for MDCK cells to IC50 for oseltamivir-resistant influenza A virus H1N1 clinical isolate IAV/Tianjin Jinnan/15/2009 infected in MDCK cells
Format: toxicity, cell-based
assay.setup: dog, read-out: Ratio CC50/IC50
Exercise: state measured selectivity ratio for each of the molecules provided.

{"columns": ["smiles.code", "selectivity ratio"],
 "data": [
  ["CC(=O)Nc1ccc2oc(-c3ccnc(C(=O)N4CCN([C@@H](c5ccc(F)cc5)c5nnn(C6CCCC6)n5)CC4)c3)nc2c1", 39],
  ["C=Cn1nnc([C@H](c2ccc(F)cc2)N2CCN(C(=O)c3cc(-c4nc5cc(NC(C)=O)ccc5o4)ccn3)CC2)n1", "> 14.5"],
  ["CCCCn1nnc([C@@H](c2ccc(F)cc2)N2CCN(C(=O)c3cc(-c4nc5cc(NC(C)=O)ccc5o4)ccn3)CC2)n1", "> 454"],
  ["CC(=O)Nc1ccc2oc(-c3ccnc(C(=O)N4CCN([C@@H](c5ccc(F)cc5)c5nnn(CCC(C)C)n5)CC4)c3)nc2c1", "> 8"],
  ["CC(=O)Nc1ccc2oc(-c3ccnc(C(=O)N4CCN([C@@H](c5ccccc5)c5nnn(C(C)C)n5)CC4)c3)nc2c1", "> 66"]
]}

# return selectivity ratio for each item in the list
1. CC(=O)Nc1ccc2oc(-c3ccnc(C(=O)N4CCN([C@@H](c5ccc(F)cc5)c5nnn(C(C)C)n5)CC4)c3)nc2c1
2. CCCCn1nnc([C@H](c2ccc(F)cc2)N2CCN(C(=O)c3cc(-c4nc5cc(NC(C)=O)ccc5o4)ccn3)CC2)n1

Data returned:
1. > 43
2. > 20
